Target: UniProt P10276
Sequence (P10276 1-462): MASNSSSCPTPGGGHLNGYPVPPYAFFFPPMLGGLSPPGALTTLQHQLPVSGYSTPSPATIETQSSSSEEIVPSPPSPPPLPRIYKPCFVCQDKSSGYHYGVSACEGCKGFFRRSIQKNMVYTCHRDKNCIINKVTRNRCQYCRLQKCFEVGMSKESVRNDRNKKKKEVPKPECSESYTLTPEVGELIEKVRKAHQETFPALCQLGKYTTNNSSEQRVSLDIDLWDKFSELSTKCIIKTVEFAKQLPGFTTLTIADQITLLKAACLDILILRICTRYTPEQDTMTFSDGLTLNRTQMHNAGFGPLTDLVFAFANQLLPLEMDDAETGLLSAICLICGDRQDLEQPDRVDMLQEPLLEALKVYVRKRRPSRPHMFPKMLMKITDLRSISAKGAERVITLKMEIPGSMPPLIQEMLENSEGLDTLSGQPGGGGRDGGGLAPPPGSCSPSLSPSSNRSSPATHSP
reported-property: Kd (nM)
Record the value in nM, omitting the unit from your answer.

Known results for molecules:
| mol | reading-unit | numeric-value |
| --- | --- | --- |
| CC(C)N1CCC(C)(C)c2cc(C(=O)Nc3ccc(C(=O)O)c(F)c3)c(O)cc21 | nM | 40 |
| CCc1ccc(C2=CC(C)(C)Sc3ccc(C#Cc4ccc(C(=O)O)cc4)cc32)cc1 | nM | 3 |
| Cc1ccc(C2=CC(C)(C)Oc3c(Br)cc(C(=O)Nc4ccc(C(=O)O)c(F)c4)cc32)cc1 | nM | 3 |
| CC1(C)CCC(C)(C)c2cc(C(=O)Nc3cc(F)c(C(=O)O)c(F)c3)c(O)cc21 | nM | 4 |

Now look at this one.
Tested on UniProt P10276, the item Cc1ccc(C2=CCC(C)(C)c3ccc(N=Nc4ccc(C(=O)O)cc4F)cc32)cc1 showed Kd equal to 300

====

System: LNCaP ITS+ cells
Assay: Plate colony formation (clonal proliferation) assay, serum-free (ITS+)-grown LNCaP
Format: cell-based, human
Details: LNCaP, serum-free (ITS+), 14 days
reported-property: pIC50
As a rule, pIC50 stands for the negative log10 of the concentration, concentration in M.

Known results for compounds:
| mol | system-under-test | numeric-value |
| --- | --- | --- |
| Cc1ccc(C2=CCC(C)(C)c3ccc(N=Nc4ccc(C(=O)O)cc4F)cc32)cc1 | LNCaP ITS+ cells | 7.00 |
| CCc1ccc(C2=CC(C)(C)Sc3ccc(C#Cc4ccc(C(=O)O)cc4)cc32)cc1 | LNCaP ITS+ cells | 7.80 |

// pIC50 value for Cc1ccc(C2=CC(C)(C)Oc3c(Br)cc(C(=O)Nc4ccc(C(=O)O)c(F)c4)cc32)cc1 : 6.69

====

As shown below, each of these compounds has a reported pIC50 value.
System: LNCaP, PC3 and DU145 cells
Test: Plate colony formation assay, stated over the three serum-free grown lines
Format: cell-based, human
Conditions: stated over all three serum-free grown lines; read-out: concentration inhibiting colony formation by 50% (IC50)
pIC50: −log10 of the molar value.

Known results for compounds:
| mol | pIC50 |
| --- | --- |
| CCc1ccc(C2=CC(C)(C)Sc3ccc(C#Cc4ccc(C(=O)O)cc4)cc32)cc1 | 7.47 to 7.80 |
| Cc1ccc(C2=CC(C)(C)Oc3c(Br)cc(C(=O)Nc4ccc(C(=O)O)c(F)c4)cc32)cc1 | ~6.70 |

// pIC50 value for Cc1ccc(C2=CCC(C)(C)c3ccc(N=Nc4ccc(C(=O)O)cc4F)cc32)cc1 : ~7.00

These measurements were taken from paper PMC2364081.
